I'd be grateful if you could share measured apparent KD of MS2 coat protein for these entries.
Test system: MS2 coat protein
Assay: apparent KD of MS2 coat protein; designed switch direction (-1 OFF switch, 1 ON switch): 1; higher = weaker reporter binding
Conditions: input ligand: microRNA oligo, concentration not stated
Express it in nM; write the number only.

Request: apparent KD of MS2 coat protein, test system MS2 coat protein, entry GCUCGCACGAUGACCCACAUGAGGAUCACCCAUGUGUGUGGGUAGGAUAUCUAGAUUAAGGAUGUAGAGAAGGGCCGAGCGAGC [SameState NG3 #23] (Eterna round: R96, puzzle: Same State NG 3)
429

Request: apparent KD of MS2 coat protein, test system MS2 coat protein, entry GGAGCCGGCCUAGGAUAUUUCAUAUUAAAACAUGAGGAUCACCCAUGUAGGCCAGAAGGCCUUGGGAAGAAGGAGGUCGGCUCC [Loop Effect - U25,U26] (Eterna round: R96, puzzle: Same State NG 2)
50.7

Request: apparent KD of MS2 coat protein, test system MS2 coat protein, entry UUAUUAAUUACAUGAGGAUCACCCAUGUUUUUAUGUCAGAGACAGGAUAUAGAAGUCUCGUUUUACUAGAAGGGUCAUUAUAAG [JR_SSNG3_Sub015] (Eterna round: R96, puzzle: Same State NG 3)
16.4

* * *

I'd be grateful if you could share measured apparent KD of MS2 coat protein for these entries.
System: MS2 coat protein
Experiment: apparent KD of MS2 coat protein; designed switch direction (-1 OFF switch, 1 ON switch): 1; higher = weaker reporter binding
Conditions: Eterna round: R95; input ligand: none
Express it in nM; write the number only.

# get_value(readout='apparent KD of MS2 coat protein', item= UGGCCAGCCUGUGCUGGGCUUUUGCAUGUACAUGAGGAUCACCCAUGUCGUGUUCAUGCUUUUUGCUCGUCUUUAAA [Photon Torp-03] (puzzle: Sensor for hsa-mir-208a) )
55.8

# get_value(readout='apparent KD of MS2 coat protein', item= GACAAGCAGGCUUUUUUCUCGUAGUGUAAACAUGAGGAUCACCCAUGUGCCCGCCCUGGAUCUUUGGAUCGCAGGAA [Onlari] (puzzle: Sensor for hsa-mir-208a) )
35.5

# get_value(readout='apparent KD of MS2 coat protein', item= UGUCCAGCCUGAGCUGGACAAAAGCAUGUACAUGAGGAUCACCCAUGUUCAUGUACAAGCUUUUUGCUCGUCUUAUC [salish99_208a_r3_057] (puzzle: Sensor for hsa-mir-208a) )
526

# get_value(readout='apparent KD of MS2 coat protein', item= ACGCAGCUGGGUAAGGAUAUCGGUGGUAAAACAUGAGGAUCACCCAUGUCCGAAGCUCGGACUUCCGAGAAGGUGCCCGGCUGCG [Soinraesar Omei Mod 6] (puzzle: Same State 2) )
218

# get_value(readout='apparent KD of MS2 coat protein', item= CGUCCGGCCUGUGCUGGCCGGUAGCUUGUACAUGAGGAUCACCCAUGUUCAUGUGCUGGCUUUUUGCUCGUCUUGUG [salish99_mir208a_017] (puzzle: Sensor for hsa-mir-208a) )
419

# get_value(readout='apparent KD of MS2 coat protein', item= AGAGCCGGCACUGAGGAUAUUCAUAAUAAAACAUGAGGAUCACCCAUGUAGGCCAGAAGGCCUUGGGAGAAGGCAGGUCGGCUCA [Mat - Same State 2 - Mod of UCT - D67] (puzzle: Same State 2) )
269

# get_value(readout='apparent KD of MS2 coat protein', item= GGUCCAGCCUGAGCUGGACAAAAGCAUGUACAUGAGGAUCACCCAUGUCAUGUACAAGCUUUUUGCUCGUUUUAAAA [JL mod - D87 - 14] (puzzle: Sensor for hsa-mir-208a) )
576

# get_value(readout='apparent KD of MS2 coat protein', item= AGCUAUCGCGUACGAUAGCUGAAGCGUGUACAUGAGGAUCACCCAUGUCAUGUGCAGGCUUUUUGCUCGUCUUAUUG [JL-shm-2.31 JL mod] (puzzle: Sensor for hsa-mir-208a) )
648

# get_value(readout='apparent KD of MS2 coat protein', item= GGUCCAGCCUGAGCUGGACGGUAGUAUGUACAUGAGGAUCACCCAUGUCAUGUAGAAGUUACUUGUUCGUCUUGAAC [SENSOR #1] (puzzle: Sensor for hsa-mir-208a) )
14.9

# get_value(readout='apparent KD of MS2 coat protein', item= UCAAGCGUUUGGCUCGUCUUAUGUUUGGUACAUGAGGAUCACCCAUGUUAUGUACGAUCCAGUUAGAUGGUAUUUUG [JR_SHM208A_Sub037] (puzzle: Sensor for hsa-mir-208a) )
47.1

# get_value(readout='apparent KD of MS2 coat protein', item= CUCCCAUGUGCACAGGAUAUGCCGGGAUGCACAUGAGGAUCACCCAUGUAAUCCUGAAAAUAAAAGCAGAAGGGUGAUCAUGGGU [Teriqula] (puzzle: Same State 2) )
13.2

# get_value(readout='apparent KD of MS2 coat protein', item= GUCGGGCAAGCUUUUUUCUCGUAGUGUAAACAUGAGGAUCACCCAUGUGCUCGCCCUGGAUCUUUGGAUCGCAGAAA [Isxevevere] (puzzle: Sensor for hsa-mir-208a) )
64.5

# get_value(readout='apparent KD of MS2 coat protein', item= UGUUAACAUGAGGAUCACCCAUGUCAAAUGAAUCGAGGAUAUGGGAAGUAAUAAGAUAAACUAGAAGGCGAAGUUG [Altered State 1-1 - Jieux - Same State 1] (puzzle: Same State 1) )
195

# get_value(readout='apparent KD of MS2 coat protein', item= AUUAAACAUGAGGAUCACCCAUGUCAACAUAGUCGAGGAUAUGGGCAAAUAAAAUAAGAACCAGAAGGCGAAUAAU [salish99_ss1_r3_075] (puzzle: Same State 1) )
335

# get_value(readout='apparent KD of MS2 coat protein', item= UGCUAUUGUAUAUUGGUGCAAGCUUAUUGACAUGAGGAUCACCCAUGUACUCGUCUUAUGUGCAGUCCGUAGACUGC [JL-shm-2.25 Brourd mod] (puzzle: Sensor for hsa-mir-208a) )
78.7

# get_value(readout='apparent KD of MS2 coat protein', item= GAGGAUGAUUUACAGGAUAUAUAGCAGAUGACAUGAGGAUCACCCAUGUAAGAGAAAGGAGGGAGAUAGAAGGGUAUGGGAGGUG [JR_SS2_Sub038] (puzzle: Same State 2) )
43.5

# get_value(readout='apparent KD of MS2 coat protein', item= AGUCCAGCCUGAGCUGGACAAAAGCAUGUACAUGAGGAUCACCCAUGUUCAUGUGCAAGCUUUUUGCUCGUCUUAAA [Zipper 52 - 4] (puzzle: Sensor for hsa-mir-208a) )
71.2

# get_value(readout='apparent KD of MS2 coat protein', item= GGAGCCGGUACUGAGGAUAUUCGUAUUAAAACAUGAGGAUCACCCAUGUAGGCCAGAAGGCCUUGGGAGAAGGCAGAUCGGCUCC [Biseusra - 1] (puzzle: Same State 2) )
48.3

# get_value(readout='apparent KD of MS2 coat protein', item= UUUAGUUGCGCGCAGGAUAUGUAUUAAUAUACAUGAGGAUCACCCAUGUGAGACCAAAUAGGUCUACAGAAGGGCGAAUCGCGAC [Laonerce - 29] (puzzle: Same State 2) )
715

# get_value(readout='apparent KD of MS2 coat protein', item= GGUCCAGCCUGAGCUGGACAAAAGCAUGUACAUGAGGAUCACCCAUGUUAUGUACAAGCUUUUUGCUCGUCUUAAAA [JL mod - D87 - 10] (puzzle: Sensor for hsa-mir-208a) )
231

* * *

Test system: MS2 coat protein
Assay: apparent KD of MS2 coat protein; designed switch direction (-1 OFF switch, 1 ON switch): -1; higher = weaker reporter binding
Conditions: input ligand: microRNA oligo, concentration not stated
MEASUREMENT KIND: apparent KD of MS2 coat protein (nM)
Express it in nM; write the number only.

Request: apparent KD of MS2 coat protein, test system MS2 coat protein, entry ACAUGUAAUGCAGGAUAUGGGACACAUGAGGAUCACCCAUGUGACCAGAGGUAAUGCUAAGAGUCUCAGAAGGGUAUGUACAUG [Ex NG2 #49] (Eterna round: R96, puzzle: Exclusion NG 2)
14.5

Request: apparent KD of MS2 coat protein, test system MS2 coat protein, entry UCAUACGAUGAGGAUAUCUCCGUUAAAGUAUGUAGAGAAGGCGUUACAUGAGGAUCACCCAUGUUUGUGGGCAG [Ex-6 Malc#9] (Eterna round: R96, puzzle: Exclusion 6)
250

Request: apparent KD of MS2 coat protein, test system MS2 coat protein, entry AAGGGUGCUUUCAGAACGACAUGAGGAUCACCCAUGUAGACUGAGGAUAUCUACUUCUAAGGACGGGAGAAGGCAGUGUAAUGU [Ex NG3 #71] (Eterna round: R96, puzzle: Exclusion NG 3)
17.8
